Please go through the items and note down their IC50.
target: human SGLT2 (Homo sapiens, UniProt P31639)
Construct: expressed in transfected cells
Sequence (P31639 whole entry): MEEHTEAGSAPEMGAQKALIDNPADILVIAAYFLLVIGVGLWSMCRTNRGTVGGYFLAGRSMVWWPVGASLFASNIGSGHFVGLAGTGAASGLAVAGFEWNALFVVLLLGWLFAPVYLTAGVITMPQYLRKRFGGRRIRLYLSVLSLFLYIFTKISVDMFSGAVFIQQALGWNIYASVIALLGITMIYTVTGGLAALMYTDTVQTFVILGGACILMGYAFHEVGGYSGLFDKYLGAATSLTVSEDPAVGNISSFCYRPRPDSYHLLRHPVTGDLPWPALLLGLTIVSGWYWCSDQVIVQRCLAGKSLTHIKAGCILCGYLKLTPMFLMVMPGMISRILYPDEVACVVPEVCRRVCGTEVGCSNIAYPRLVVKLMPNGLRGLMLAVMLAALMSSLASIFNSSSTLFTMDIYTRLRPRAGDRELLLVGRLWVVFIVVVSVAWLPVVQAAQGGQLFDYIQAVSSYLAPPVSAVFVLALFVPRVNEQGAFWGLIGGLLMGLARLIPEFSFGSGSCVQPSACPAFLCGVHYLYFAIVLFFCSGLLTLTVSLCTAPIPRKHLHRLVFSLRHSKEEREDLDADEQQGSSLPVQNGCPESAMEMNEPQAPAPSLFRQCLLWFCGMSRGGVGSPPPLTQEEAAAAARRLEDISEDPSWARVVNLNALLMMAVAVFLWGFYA
protocol.summary: SGLT2 in vitro assay: Na-dependent 14C-AMG uptake in CHO-K1 cells stably expressing human SGLT2
Assay type: cell-based
details: CHO-K1 cells stably expressing human SGLT2; 14C-AMG uptake; compounds of formula (I) where R0 is fluoro
Give the quantity in nM, number only.

Task: Answer with the recorded IC50 of Cc1cc(O)c([C@@H]2O[C@H](CO)C(F)(F)[C@H](O)[C@H]2O)cc1Cc1ccc(Cl)s1 only.
Result: 5.7

Task: Note IC50 for the compound shown: CCc1cc(O)c([C@@H]2O[C@H](CO)C(F)(F)[C@H](O)[C@H]2O)cc1Cc1ccc(OCF)cc1
Result: 1.5

Task: Identify measured IC50 corresponding to Cc1cc(O)c([C@@H]2O[C@H](CO)C(F)(F)[C@H](O)[C@H]2O)cc1Cc1cc2ccccc2s1
Result: 3.8

Task: Write down IC50 measured for item COc1cc(Cl)c(Cc2ccc(C)s2)cc1[C@@H]1O[C@H](CO)C(F)(F)[C@H](O)[C@H]1O
Result: 0.7

Task: Recall and state the measured IC50 for OC[C@H]1O[C@@H](c2cc(Cc3ccc(Cl)s3)c(Cl)cc2O)[C@H](O)[C@@H](O)C1(F)F .
Result: 0.8

Task: Please list IC50 recorded for the compound Cc1cc(O)c([C@@H]2O[C@H](CO)C(F)(F)[C@H](O)[C@H]2O)cc1Cc1cc2cc(F)ccc2s1
Result: 19

Task: Return reported IC50. Input compound: COc1cc(Cl)c(Cc2cc3ccccc3s2)cc1[C@@H]1O[C@H](CO)C(F)(F)[C@H](O)[C@H]1O
Result: 4.3

Task: State its IC50: COc1cc(O)c([C@@H]2O[C@H](CO)C(F)(F)[C@H](O)[C@H]2O)cc1Cc1cc2ccccc2s1
Result: 24.1

----------
target: human SGLT1 (Homo sapiens)
Construct: expressed in transfected cells
Sequence (P13866 1-664): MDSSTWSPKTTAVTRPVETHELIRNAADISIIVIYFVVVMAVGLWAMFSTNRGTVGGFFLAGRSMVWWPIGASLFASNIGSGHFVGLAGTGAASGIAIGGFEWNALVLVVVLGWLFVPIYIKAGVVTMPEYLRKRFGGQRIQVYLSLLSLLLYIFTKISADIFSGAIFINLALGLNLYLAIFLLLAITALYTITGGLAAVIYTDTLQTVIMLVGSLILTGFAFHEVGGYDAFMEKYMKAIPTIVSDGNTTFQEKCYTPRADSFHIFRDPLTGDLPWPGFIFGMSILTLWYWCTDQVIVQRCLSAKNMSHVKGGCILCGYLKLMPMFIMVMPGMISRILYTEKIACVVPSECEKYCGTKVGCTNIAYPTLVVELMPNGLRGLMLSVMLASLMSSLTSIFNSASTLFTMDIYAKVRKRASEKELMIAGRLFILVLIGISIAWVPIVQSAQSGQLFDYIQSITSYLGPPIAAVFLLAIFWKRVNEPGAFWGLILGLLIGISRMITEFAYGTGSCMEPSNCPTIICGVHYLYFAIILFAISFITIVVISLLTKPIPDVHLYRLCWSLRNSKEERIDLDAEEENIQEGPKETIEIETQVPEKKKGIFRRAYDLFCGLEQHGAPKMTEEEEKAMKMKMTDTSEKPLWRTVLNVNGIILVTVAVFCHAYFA
protocol.summary: SGLT1 in vitro assay: Na-dependent 14C-AMG uptake in CHO-K1 cells stably expressing human SGLT1
Type: cell-based
details: @ 0.3 μM; CHO-K1 cells stably expressing human SGLT1; 14C-AMG uptake
Method: Biological Example 1: SGLT1 and SGLT2 In Vitro Assays The ability of the compounds of formula (I) of the present invention to treat an SGLT-mediated condition was determined using the following procedures: […] Inhibition of SGLT1 and SGLT2 activity was assessed in CHO K1 cells stably expressing either human SGLT1 or SGLT2, using the SGLT specific glucose analog methyl-glucopyranoside (Sigma Catalog No. M-9376). […] Plates were counted in a TopCount (Packard, Meriden, Conn.) […]
Hi there, I'd appreciate the recorded SGLT1 % Inh @ 0.3 μM for every entry that follows.
Report only the number, with the unit % understood.

Task: Answer with the recorded SGLT1 % Inh @ 0.3 μM for the molecule listed here: Cc1ccc([C@@H]2O[C@H](CO)C(F)(F)[C@H](O)[C@H]2O)cc1Cc1cc2c(s1)CCN(C(=O)c1nccs1)C2
Result: 20.3

Task: Could you please provide reported SGLT1 % Inh @ 0.3 μM for COc1ccc(Cc2cc([C@@H]3O[C@H](CO)C(F)(F)[C@H](O)[C@H]3O)c(OC)cc2OC)cc1 ? Thanks!
Result: 30.2

Task: Give a short answer stating reported SGLT1 % Inh @ 0.3 μM for COc1cc(C)c(Cc2ccc(C3CC3)cc2)cc1[C@@H]1O[C@H](CO)C(F)(F)[C@H](O)[C@H]1O .
Result: 30.6

Task: Input COc1cc(C)c(Cc2ccc(OC(F)(F)F)cc2)cc1[C@@H]1O[C@H](CO)C(F)(F)[C@H](O)[C@H]1O , output reported SGLT1 % Inh @ 0.3 μM.
Result: 30.3

Where do these numbers come from? They come from patent US20210238170A1.
